src = patent US10040805B2

- target.system: BTK enzyme (full-length BTK, hBTK) (Homo sapiens (Human), UniProt Q06187)
- Sequence (Q06187 whole entry): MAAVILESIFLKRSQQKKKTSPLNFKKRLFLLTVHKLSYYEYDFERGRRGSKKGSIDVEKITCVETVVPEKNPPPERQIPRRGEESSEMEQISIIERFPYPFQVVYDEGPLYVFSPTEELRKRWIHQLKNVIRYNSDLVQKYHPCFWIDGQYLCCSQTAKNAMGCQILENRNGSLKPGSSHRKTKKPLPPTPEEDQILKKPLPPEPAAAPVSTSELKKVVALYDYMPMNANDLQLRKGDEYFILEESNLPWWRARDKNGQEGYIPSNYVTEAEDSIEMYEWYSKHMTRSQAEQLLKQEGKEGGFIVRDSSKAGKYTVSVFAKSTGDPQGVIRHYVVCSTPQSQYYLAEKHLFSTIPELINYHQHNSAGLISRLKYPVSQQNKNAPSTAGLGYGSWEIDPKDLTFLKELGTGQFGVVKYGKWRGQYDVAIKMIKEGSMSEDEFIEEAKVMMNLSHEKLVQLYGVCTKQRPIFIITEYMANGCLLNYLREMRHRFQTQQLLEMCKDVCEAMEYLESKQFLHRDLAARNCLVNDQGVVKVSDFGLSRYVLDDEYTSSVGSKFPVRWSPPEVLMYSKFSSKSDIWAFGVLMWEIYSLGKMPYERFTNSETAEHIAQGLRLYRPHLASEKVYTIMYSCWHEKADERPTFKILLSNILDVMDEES
Below is a list of entries, each paired with its recorded IC50 value.
Express the result in nM but write the number alone.

The examples below pair each entry with its known result.
# compound, unit.of.measurement, number
measured = [
    ("CCOc1cc(C(=O)Nc2cc(C(F)(F)F)ccn2)ccc1-c1nc(C2(C)CCC3CCN(C)C(=O)N3C2)n2ccnc(N)c12 (stereo not shown) [Example 13]", "nM", 10),
    ("C[C@@]1(c2nc(-c3ccc(C(=O)Nc4cc(C(F)(F)F)ccn4)cc3F)c3c(N)nccn23)CC[C@H]2COC(=O)N2C1 [Example 9]", "nM", 0.22),
    ("CCOc1cc(C(=O)Nc2cc(C(F)(F)F)ccn2)ccc1-c1nc(C2(C)CCC3CCN(C)C(=O)N3C2)n2ccnc(N)c12 (stereo not shown) [Example 12]", "nM", 411),
]

We next turn to a different compound, shown below.
Requested field: IC50. Item: CCOc1cc(C(=O)Nc2cc(C(F)(F)F)n(C)n2)ccc1-c1nc([C@]2(C)CC[C@H]3COC(=O)N3C2)n2ccnc(N)c12 [Example 8] 0.7

###

- target.system: BTK enzyme (full-length BTK, hBTK) (Homo sapiens (Human))
So basically, if IC50 comes in under 0.6 nM it's MET, and if it's 0.6 nM or more it's NOT MET.

Example results:
# compound, target.system, group
data = [
    ("CCOc1cc(C(=O)Nc2cc(C(F)(F)F)n(C)n2)ccc1-c1nc([C@]2(C)CC[C@H]3CN(C(C)C)CC(=O)N3C2)n2ccnc(N)c12", "BTK enzyme (full-length BTK, hBTK) (Homo sapiens (Human))", "NOT MET"),
    ("CCOc1cc(C(=O)Nc2cc(C(F)(F)F)n(C)n2)ccc1-c1nc([C@@]2(C)CC[C@@H]3CN(C(C)C)CC(=O)N3C2)n2ccnc(N)c12 [Example 4, bis(2,2,2-trifluoroacetate)]", "BTK enzyme (full-length BTK, hBTK) (Homo sapiens (Human))", "NOT MET"),
]

Confirm or reject: IC50 of `CCOc1cc(C(=O)Nc2cc(C(F)(F)F)ccn2)ccc1-c1nc([C@]2(C)CC[C@H]3CCC(=O)N3C2)n2ccnc(N)c12` lies strictly below 0.6 nM MET

Queued: `C[C@@]1(c2nc(-c3ccc(C(=O)Nc4cc(C(F)(F)F)ccn4)cc3)c3c(N)nccn23)CC[C@H]2CCC(=O)N2C1` MET

Queued: `CCOc1cc(C(=O)Nc2cc(C(F)(F)F)n(C)n2)c(Cl)cc1-c1nc([C@]2(C)CC[C@H]3CN(C(C)C)CC(=O)N3C2)n2ccnc(N)c12` NOT MET
